Test system: phosphorylation of Retinoblastoma Protein (pRb Ser807/811 or Ser780) in T47D cells
procedure-details: Inhibition of phosphorylation of retinoblastoma protein (pRb) in T47D cell (ELISA)
Type: cell-based, human
particulars: Homo sapiens, T47D, read-out: Phospho T47D Ser807 IC50, pRb Ser807 phosphorylation, T47D cells
pIC50: −log10 of the molar value.
Catalogue of pIC50 values
measured-quantity: pIC50

> print(dat)
                                    compound       reading
 1  CC(C)(C)c1cnn2ccc(-c3ccnc(Nc4ccc(N5CCNCCC5=O)cn4)n3)cc12        > 7.00
 2  COc1nc(-c2ccnc(Nc3ccc(N4CCC(C)(N)CC4)cn3)n2)cc2c1ncn2C(C)C        > 7.00
 3  COc1nc(-c2ccnc(Nc3ccc(N4CCN(CCF)CC4)cn3)n2)cc2c1ncn2C(C)C  6.30 to 7.00
 4  COc1nc(-c2nc(Nc3ccc(N4CCCC4=O)cn3)ncc2F)cc2c1nc(C)n2C(C)C  6.30 to 7.00
 5  COc1nc(-c2ccnc(Nc3ccc(CN4CCOCC4)cn3)n2)cc2c1ncn2C(C)C  6.30 to 7.00
 6  COc1nc(-c2ccnc(Nc3ccc(N4CC5CC4CO5)cn3)n2)cc2c1ncn2C(C)C (stereo not drawn)  6.30 to 7.00
 7  COc1nc(-c2nc(Nc3ccc(N4CCOCC4=O)cn3)ncc2F)cc2c1nc(C)n2C(C)C        > 7.00
 8  CCN1CCN(c2ccc(Nc3nccc(-c4ccn5ncc(C(C)C)c5c4)n3)nc2)C(=O)C1        > 7.00
 9  CC(C)n1cnc2c(F)nc(-c3nc(Nc4ccc(N5CCC(N(C)C)CC5=O)cn4)ncc3Cl)cc21 (stereo not drawn)        > 7.00
10  CC(C)c1cnn2ccc(-c3nc(Nc4ccc(N5CCC(NC6CC(F)(F)C6)CC5=O)cn4)ncc3F)cc12 (stereo not drawn)        > 7.00
11  COc1nc(-c2nc(Nc3ccc(N4CCN(C5COC5)CC4=O)cn3)ncc2F)cc2c1ncn2C(C)C        > 7.00
12  CN(C)C1CCN(c2ccc(Nc3nccc(-c4ccn5ncc(C(C)(C)C)c5c4)n3)nc2)C(=O)C1 (stereo not drawn) [Synthetic Example 175]        > 7.00
13  COc1nc(-c2ccnc(Nc3ccc(N4CCC(N5CCC5)CC4=O)cn3)n2)cc2c1ncn2C(C)C (stereo not drawn)        > 7.00
14  CCN1CC2CC1CN2c1ccc(Nc2nccc(-c3cc4c(ncn4C(C)C)c(OC)n3)n2)nc1 (stereo not drawn)        > 7.00
15  COc1nc(-c2nc(Nc3ccc(N4CCC(N(C)C)CC4=O)cn3)ncc2F)cc2c1nc(C)n2C(C)C (stereo not drawn) [Synthetic Example 62]        > 7.00

###

tgt: CDK2/CyclinE1 (Homo sapiens, UniProt P24941)
Construct: purchased SignalChem C29-18G
procedure-details: Assay for inhibition of CDK2/CyclinE1 (Caliper microfluidic kinase assay)
Assay type: biochemical
particulars: CDK2/CyclinE1, 100 μM ATP; read-out: CDK2 IC50
Catalogue of IC50 values
measured-quantity: IC50

> print(dat)
                                    molecule         reading
 1  Cc1nc(Nc2ncc(F)c(-c3ccn4ncc(C(C)C)c4c3)n2)ccc1C(=O)N1CCC(NC2CC2)CC1  100 to 1000 nM
 2  CC(C)c1cnn2ccc(-c3nc(Nc4ccc(N5CCN(CC(F)(F)F)CC5=O)cn4)ncc3F)cc12    10 to 100 nM
 3  CCN1CCN(c2ccc(Nc3ncc(F)c(-c4cc5c(nc(C)n5C(C)C)c(OC)n4)n3)nc2)C(=O)C1 [Synthetic Example 128]       > 1000 nM
 4  CCN1CCC(=O)N(c2ccc(Nc3ncc(F)c(-c4ccn5ncc(C(C)C)c5c4)n3)nc2)CC1    10 to 100 nM
 5  CC(C)n1cnc2c(F)nc(-c3ccnc(Nc4ccc(N5CCCC(N(C)C)C5=O)cc4)n3)cc21 (centres unmarked)    10 to 100 nM
 6  Cc1cnc(Nc2ccc(N3CCC(N(C)C)CC3=O)cn2)nc1-c1cc2c(ncn2C(C)C)c(F)n1 (centres unmarked)  100 to 1000 nM
 7  CC(C)c1cnn2ccc(-c3ccnc(Nc4ccc(C(=O)N(C)C)cc4)n3)cc12         < 10 nM
 8  CC(C)c1cnn2ccc(-c3ccnc(Nc4ccn(CC5CCN(C(=O)CO)CC5)n4)n3)cc12 [Synthetic Example 55]       > 1000 nM
 9  CC(C)c1cnn2ccc(-c3ccnc(Nc4ccc(S(N)(=O)=O)cc4)n3)cc12         < 10 nM
10  CNC1CCCN(c2ccc(Nc3nccc(-c4ccn5ncc(C(C)C)c5c4)n3)cc2)C1=O (centres unmarked)         < 10 nM
11  O=C1CCNCCN1c1ccc(Nc2ncc(F)c(-c3ccn4ncc(C5CC5)c4c3)n2)nc1  100 to 1000 nM
12  COc1nc(-c2nc(Nc3ccc(N4CCNCC4=O)cc3F)ncc2F)cc2c1ncn2C(C)C    10 to 100 nM
13  CC(C)c1cnn2ccc(-c3ccnc(Nc4ccc5c(c4)CS(=O)(=O)C5)n3)cc12         < 10 nM
14  COc1nc(-c2nc(Nc3ccc(N4CCNC5(CC5)C4)cn3)ncc2F)cc2c1nc(C)n2C(C)C       > 1000 nM
15  CC(C)c1cnn2ccc(-c3ccnc(Nc4ccc(N5CCCC(N(C)C)C5=O)cc4)n3)cc12 (centres unmarked)  100 to 1000 nM
16  CC(C)n1cnc2c(F)nc(-c3ccnc(NC4CCN(S(C)(=O)=O)CC4)n3)cc21    10 to 100 nM
17  CN(C)C1CCCN(c2ccc(Nc3nccc(-c4cc(F)c5c(c4)C(C)(C)CO5)n3)nc2)C1=O (centres unmarked)       > 1000 nM

###

tgt: CDK6/CyclinD3 (Homo sapiens, UniProt Q00534)
Construct: purchased Carna 04-107
Sequence (Q00534 whole entry): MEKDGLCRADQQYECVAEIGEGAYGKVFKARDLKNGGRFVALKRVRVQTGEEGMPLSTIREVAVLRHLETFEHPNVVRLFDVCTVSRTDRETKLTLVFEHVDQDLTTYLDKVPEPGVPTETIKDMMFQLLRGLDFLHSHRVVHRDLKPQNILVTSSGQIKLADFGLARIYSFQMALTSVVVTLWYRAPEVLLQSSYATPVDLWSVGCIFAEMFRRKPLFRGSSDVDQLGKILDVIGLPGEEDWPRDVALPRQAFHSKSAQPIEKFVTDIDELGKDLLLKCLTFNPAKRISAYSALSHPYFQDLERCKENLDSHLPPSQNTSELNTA
Sequence (P30281 whole entry partner): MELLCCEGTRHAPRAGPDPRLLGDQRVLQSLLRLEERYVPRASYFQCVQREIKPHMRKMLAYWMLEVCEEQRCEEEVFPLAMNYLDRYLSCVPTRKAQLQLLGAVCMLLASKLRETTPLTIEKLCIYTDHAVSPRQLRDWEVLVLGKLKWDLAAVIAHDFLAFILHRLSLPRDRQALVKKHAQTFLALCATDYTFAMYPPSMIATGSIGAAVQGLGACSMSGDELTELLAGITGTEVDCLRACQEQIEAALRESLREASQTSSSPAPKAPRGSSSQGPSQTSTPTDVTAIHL
procedure-details: Assay for inhibition of CDK6/CyclinD3 (Caliper microfluidic kinase assay)
Type: biochemical
particulars: CDK6/CyclinD3, 300 μM ATP
pIC50: −log10 of the molar value.
Catalogue of pIC50 values
measured-quantity: pIC50

> print(dat)
                                    compound       reading
 1  O=C1COCCN1c1ccc(Nc2ncc(F)c(-c3ccn4ncc(C5CCOCC5)c4c3)n2)nc1  6.00 to 7.00
 2  CC(C)c1cnn2ccc(-c3ccnc(Nc4ccc(N5CCNCC5=O)cc4)n3)cc12        > 8.00
 3  Cc1nn2ccc(-c3ccnc(Nc4ccc(N5CCNCC5=O)cn4)n3)cc2c1C(C)C  7.00 to 8.00
 4  CC(C)c1cnn2ccc(-c3ccnc(Nc4ccc(N5CCNCC5=O)cc4F)n3)cc12  7.00 to 8.00
 5  CCN1CCN(Cc2ccc(Nc3ncc(F)c(-c4cc(C)n5ncc(C(C)C)c5c4)n3)nc2)CC1  6.00 to 7.00
 6  CC(C)c1cnn2ccc(-c3nc(Nc4ccc(N5CCN(S(C)(=O)=O)CC5=O)cn4)ncc3F)cc12  7.00 to 8.00
 7  CCN1CCN(c2ccc(Nc3nccc(-c4ccn5ncc(C(C)C)c5c4)n3)nc2)C(=O)C1  7.00 to 8.00
 8  COc1nc(-c2ccnc(Nc3ccc(N4CCN(C5COC5)CC4=O)cn3)n2)cc2c1ncn2C(C)C  7.00 to 8.00
 9  Cc1nc(Nc2ncc(F)c(-c3ccn4ncc(C(C)C)c4c3)n2)ccc1C(=O)N1CCC(NC2CC2)CC1  7.00 to 8.00
10  CC1CC(=O)N(c2ccc(Nc3ncc(F)c(-c4ccn5ncc(C(C)C)c5c4)n3)nc2)CCN1 (stereo not shown)  7.00 to 8.00
11  CN(C)C1CCN(c2ccc(Nc3nccc(-c4cc(F)c5c(c4)C(C)(C)CO5)n3)nc2)C(=O)C1 (stereo not shown)  7.00 to 8.00
12  CC(C)c1cnn2ccc(-c3nc(Nc4ccc(N5CCC(NC6CC(F)(F)C6)CC5=O)cn4)ncc3F)cc12 (stereo not shown)  7.00 to 8.00
13  CC1(C)COc2c(F)cc(-c3ccnc(Nc4ccc(N5CCNCC5=O)cn4)n3)cc21 [Synthetic Example 59]  7.00 to 8.00
14  COc1nc(-c2nc(Nc3ccc(N4CCCNCC4=O)cn3)ncc2F)cc2c1nc(C)n2C(C)C  7.00 to 8.00
15  CC(C)c1cnn2ccc(-c3nc(Nc4ccc(N5CCCNCC5=O)cn4)ncc3F)cc12  7.00 to 8.00
16  CC(C)c1cnn2ccc(-c3ccnc(Nc4ccc(N5CCC(C)(N)CC5=O)cc4F)n3)cc12 (stereo not shown)  7.00 to 8.00
